Data provenance: patent US20170342144A1

Target: T1, human TGFβ3 (human, UniProt P10600 301-412)
T1 sequence: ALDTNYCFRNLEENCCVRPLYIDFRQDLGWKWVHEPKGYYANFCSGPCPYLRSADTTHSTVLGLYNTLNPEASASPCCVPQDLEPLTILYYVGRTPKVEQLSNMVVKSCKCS
Assay: Biacore, 3.33-90 nM, 1:1 global fit, vs wt GC1008
Recorded KD mutant/KD wt by entry
Lab note: record just the number, no unit beside it.

Some solved cases for reference:
binder	KD mutant/KD wt
V55F (antibody, V domains shown, GC1008 IgG4 variant) VH: QVQLVQSGAEVKKPGSSVKVSCKASGYTFSSNVISWVRQAPGQGLEWMGGVIPIFDIANYAQRFKGRVTITADESTSTTYMELSSLRSEDTAVYYCASTLGLVLDAMDYWGQGTLVTVSS VL: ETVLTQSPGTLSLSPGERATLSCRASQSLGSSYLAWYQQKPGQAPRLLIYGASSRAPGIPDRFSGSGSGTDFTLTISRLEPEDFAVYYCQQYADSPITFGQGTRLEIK	0.8
E74R (antibody, V domains shown, GC1008 IgG4 variant) VH: QVQLVQSGAEVKKPGSSVKVSCKASGYTFSSNVISWVRQAPGQGLEWMGGVIPIVDIANYAQRFKGRVTITADRSTSTTYMELSSLRSEDTAVYYCASTLGLVLDAMDYWGQGTLVTVSS VL: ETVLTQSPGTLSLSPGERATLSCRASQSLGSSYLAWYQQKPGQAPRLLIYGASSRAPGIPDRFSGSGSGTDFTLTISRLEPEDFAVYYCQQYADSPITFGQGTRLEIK	0.8
N32K (antibody, V domains shown, GC1008 IgG4 variant) VH: QVQLVQSGAEVKKPGSSVKVSCKASGYTFSSKVISWVRQAPGQGLEWMGGVIPIVDIANYAQRFKGRVTITADESTSTTYMELSSLRSEDTAVYYCASTLGLVLDAMDYWGQGTLVTVSS VL: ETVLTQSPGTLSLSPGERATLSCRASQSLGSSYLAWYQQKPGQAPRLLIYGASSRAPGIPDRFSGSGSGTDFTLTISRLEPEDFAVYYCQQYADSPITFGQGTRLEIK	3.7

Query: KD mutant/KD wt; subject: Y27H (antibody, V domains shown, GC1008 IgG4 variant) VH: QVQLVQSGAEVKKPGSSVKVSCKASGHTFSSNVISWVRQAPGQGLEWMGGVIPIVDIANYAQRFKGRVTITADESTSTTYMELSSLRSEDTAVYYCASTLGLVLDAMDYWGQGTLVTVSS VL: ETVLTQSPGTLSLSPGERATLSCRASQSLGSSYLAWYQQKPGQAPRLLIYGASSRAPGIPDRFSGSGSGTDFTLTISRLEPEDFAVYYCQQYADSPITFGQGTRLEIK
1.1

Query: KD mutant/KD wt; subject: I54F (antibody, V domains shown, GC1008 IgG4 variant) VH: QVQLVQSGAEVKKPGSSVKVSCKASGYTFSSNVISWVRQAPGQGLEWMGGVIPFVDIANYAQRFKGRVTITADESTSTTYMELSSLRSEDTAVYYCASTLGLVLDAMDYWGQGTLVTVSS VL: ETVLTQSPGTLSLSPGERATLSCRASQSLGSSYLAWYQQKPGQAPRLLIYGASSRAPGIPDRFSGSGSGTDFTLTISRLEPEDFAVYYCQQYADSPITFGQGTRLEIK
1.2
